Sourced from the supplement of paper PMC9233669

Quick reference for self-aminoacylation among some sequences
System: biotinyl-Phe-oxazolone
test protocol: self-aminoacylation, catalytic enhancement (BFO) (fold over background); higher = more active; k-Seq, kA / k0A0; sequences stand for … in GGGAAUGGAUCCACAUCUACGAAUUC…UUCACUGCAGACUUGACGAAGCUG
This sample holds only a part of the variants without activity.
Respond with the number and no other words.

sequence input	reported measurement
CUACUUCAAGCACUCGGUCUG [Fam1A.1 aminoacylation ribozyme variant]	2.08
AUUUCCCUGGUCAUGGAGUGA [Fam2.1 aminoacylation ribozyme variant]	22
AUUCACCUAUGUGAUCGGGUG [Fam2.2 aminoacylation ribozyme variant]	15.9
AAGUUUGCUAAUUGUCCCAAG [Fam3.1 aminoacylation ribozyme variant]	2.16
AUAACCCUGGUCAUAGAGUGA [Fam2.1 aminoacylation ribozyme variant]	49

What value of measured self-aminoacylation is listed for ACUCACCUAGGACAUCGGGUG [Fam2.2 aminoacylation ribozyme variant] ?
20.1

Which value of self-aminoacylation has been reported for AUUACCCUGGUCAUCGGGUUA [Fam2.1 aminoacylation ribozyme variant] in the records?
218

Query: self-aminoacylation; subject: AAGUGUGCGAAUAGUCGCAAG [Fam3.1 aminoacylation ribozyme variant]
2.28
